Target: NUAK family SNF1-like kinase 1 (Homo sapiens)
Sequence (O60285 whole entry): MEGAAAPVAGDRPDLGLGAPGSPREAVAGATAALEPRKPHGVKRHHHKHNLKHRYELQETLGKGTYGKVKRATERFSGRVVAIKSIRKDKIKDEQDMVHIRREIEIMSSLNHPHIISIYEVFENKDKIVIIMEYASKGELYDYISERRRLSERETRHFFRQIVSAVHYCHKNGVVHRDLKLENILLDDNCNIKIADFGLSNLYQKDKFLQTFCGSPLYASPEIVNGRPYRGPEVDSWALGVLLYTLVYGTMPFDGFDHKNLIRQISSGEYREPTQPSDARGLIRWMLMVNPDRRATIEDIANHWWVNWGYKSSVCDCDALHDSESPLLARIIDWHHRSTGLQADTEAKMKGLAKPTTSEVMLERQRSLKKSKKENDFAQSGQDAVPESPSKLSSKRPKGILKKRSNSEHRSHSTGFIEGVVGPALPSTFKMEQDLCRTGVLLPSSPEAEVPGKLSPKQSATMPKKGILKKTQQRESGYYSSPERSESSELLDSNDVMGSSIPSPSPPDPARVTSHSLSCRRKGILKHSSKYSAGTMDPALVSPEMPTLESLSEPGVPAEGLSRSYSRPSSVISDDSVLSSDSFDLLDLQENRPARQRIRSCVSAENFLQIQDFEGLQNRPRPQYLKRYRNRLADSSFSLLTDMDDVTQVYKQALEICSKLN
assay.endpoint: IC50

Look at this molecule and give its reported IC50. CCC[C@H](C)Nc1ncc2c(-c3ccc(CN4CCCN(C)CC4)cc3)cn([C@H]3CC[C@H](O)CC3)c2n1
> 0.1 µM

---

Experiment: Tmax in NSG mouse xenografted with human 697 cells at 30 mg/kg, ip administered as single dose
Format: ADME, organism-based
Conditions: in vivo
assay.endpoint: Tmax
Just so you know, I need the unit written after the number.

Look at this compound and give its reported Tmax. CCC[C@H](C)Nc1ncc2c(-c3ccc(CN4CCCN(C)CC4)cc3)cn([C@H]3CC[C@H](O)CC3)c2n1
5 min

---

Assay: Cmax in mouse at 3 mg/kg, ip
Type: ADME, organism-based
Set-up: dose 3 mg/kg, route intraperitoneal
Details: in vivo
assay.endpoint: Cmax (nM)
// units = nM; emit number, no label

Look at this compound and give its reported Cmax. CCC[C@H](C)Nc1ncc2c(-c3ccc(CN4CCCN(C)CC4)cc3)cn([C@H]3CC[C@H](O)CC3)c2n1
600

---

Test: Oral bioavailability in mouse at 3 mg/kg
Type: ADME, organism-based
Details: in vivo
assay.endpoint: bioavailability (%)
// units = %; emit number, no label

Look at this compound and give its reported bioavailability. CCC[C@H](C)Nc1ncc2c(-c3ccc(CN4CCCN(C)CC4)cc3)cn([C@H]3CC[C@H](O)CC3)c2n1
15

---

Assay: Half life in mouse at 3 mg/kg, ip
Type: ADME, organism-based
Conditions: in vivo
assay.endpoint: half-life (h)
// units = h; emit number, no label

Look at this compound and give its reported half-life. CCC[C@H](C)Nc1ncc2c(-c3ccc(CN4CCCN(C)CC4)cc3)cn([C@H]3CC[C@H](O)CC3)c2n1
1.43

---

Biological target: STE20-like serine/threonine-protein kinase (Homo sapiens, UniProt Q9H2G2)
Sequence (Q9H2G2 whole entry): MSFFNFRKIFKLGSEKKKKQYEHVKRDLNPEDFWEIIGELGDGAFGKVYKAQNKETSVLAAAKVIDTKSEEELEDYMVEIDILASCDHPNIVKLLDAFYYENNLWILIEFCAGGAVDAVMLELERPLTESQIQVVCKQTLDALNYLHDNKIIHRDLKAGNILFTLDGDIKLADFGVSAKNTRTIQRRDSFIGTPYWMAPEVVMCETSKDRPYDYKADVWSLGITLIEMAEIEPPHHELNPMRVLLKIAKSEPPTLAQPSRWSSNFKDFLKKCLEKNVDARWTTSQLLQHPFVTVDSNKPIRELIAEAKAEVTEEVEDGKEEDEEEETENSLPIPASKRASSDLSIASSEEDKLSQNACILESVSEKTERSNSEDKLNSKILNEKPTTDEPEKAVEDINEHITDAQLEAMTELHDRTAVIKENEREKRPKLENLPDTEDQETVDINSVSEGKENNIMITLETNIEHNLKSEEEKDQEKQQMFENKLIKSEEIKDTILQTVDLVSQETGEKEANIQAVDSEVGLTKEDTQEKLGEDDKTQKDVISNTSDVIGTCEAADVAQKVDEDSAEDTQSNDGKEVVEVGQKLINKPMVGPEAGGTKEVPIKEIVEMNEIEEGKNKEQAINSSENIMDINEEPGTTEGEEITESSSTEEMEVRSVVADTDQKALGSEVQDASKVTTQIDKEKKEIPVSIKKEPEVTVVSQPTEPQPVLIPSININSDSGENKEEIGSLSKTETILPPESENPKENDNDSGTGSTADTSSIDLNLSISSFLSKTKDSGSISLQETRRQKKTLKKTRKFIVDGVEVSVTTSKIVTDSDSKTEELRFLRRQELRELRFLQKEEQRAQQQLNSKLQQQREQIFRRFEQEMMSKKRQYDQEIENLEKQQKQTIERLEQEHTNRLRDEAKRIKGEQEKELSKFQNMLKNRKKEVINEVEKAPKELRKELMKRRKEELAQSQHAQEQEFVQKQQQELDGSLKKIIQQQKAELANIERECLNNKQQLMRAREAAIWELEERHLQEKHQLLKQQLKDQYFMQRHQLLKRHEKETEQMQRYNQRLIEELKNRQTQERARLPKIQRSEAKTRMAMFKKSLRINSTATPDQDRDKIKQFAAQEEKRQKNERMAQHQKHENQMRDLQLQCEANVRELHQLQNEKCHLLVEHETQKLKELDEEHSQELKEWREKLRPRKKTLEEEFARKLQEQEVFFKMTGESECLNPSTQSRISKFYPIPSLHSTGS
assay.endpoint: pIC50
pIC50 here: minus log base 10 of the concentration, concentration in moles per litre.

Look at this compound and give its reported pIC50. CCC[C@H](C)Nc1ncc2c(-c3ccc(CN4CCCN(C)CC4)cc3)cn([C@H]3CC[C@H](O)CC3)c2n1
7.33
